Each item that follows carries a reported hBChE RA (%).
- SYSTEM_TESTED: human butyrylcholinesterase (hBChE) (Homo sapiens, UniProt P06276)
- Sequence (P06276 29-602): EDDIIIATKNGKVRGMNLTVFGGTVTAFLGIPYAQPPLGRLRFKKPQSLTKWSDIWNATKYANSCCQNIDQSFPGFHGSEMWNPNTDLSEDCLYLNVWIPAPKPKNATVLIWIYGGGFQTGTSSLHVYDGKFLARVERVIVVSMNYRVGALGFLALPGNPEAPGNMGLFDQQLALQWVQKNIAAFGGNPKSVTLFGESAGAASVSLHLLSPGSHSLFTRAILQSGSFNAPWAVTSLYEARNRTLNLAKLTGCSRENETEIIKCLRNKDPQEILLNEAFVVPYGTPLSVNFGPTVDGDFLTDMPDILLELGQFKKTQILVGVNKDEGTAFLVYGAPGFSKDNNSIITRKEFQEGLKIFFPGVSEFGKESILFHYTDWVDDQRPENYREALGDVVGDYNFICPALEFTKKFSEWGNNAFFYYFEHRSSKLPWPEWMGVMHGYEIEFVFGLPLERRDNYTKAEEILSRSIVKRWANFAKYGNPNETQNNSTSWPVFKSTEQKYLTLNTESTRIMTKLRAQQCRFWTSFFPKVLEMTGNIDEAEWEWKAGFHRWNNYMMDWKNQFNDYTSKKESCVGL
- ASSAY_TEXT: biochemical
- Type: biochemical
- Experimental: Enzyme solutions were prepared by diluting the concentrated enzyme stock solutions (4.6 mg/mL in 10 mM MES-NaOH buffer, pH 6.5) in a sodium phosphate-buffered solution (0.1 M, pH 8.0). […] The final organic solvent (DMSO) content was always 1% (v/v). Reactions were initiated by adding the substrate to the enzyme and inhibitor, which were preincubated for 5 min. […] The initial velocity (v) was calculated from the slope of the linear trend obtained, with each measurement performed in triplicate. […]
I only need the number, in %, no unit after it.

Worked examples, 4 compounds total:
                                   compound                             system_tested  display_unit  observed_result
0  CC(C)(C)CCN(Cc1ccc(C#Cc2ccc(F)cc2)cc1)C(=O)c1ccc(O)c(C(=O)O)c1 [Compound 6]  human butyrylcholinesterase (hBChE) (Homo sapiens, UniProt P06276)             %               95
1  CCCCCCN(Cc1ccc(C#Cc2ccc(CCCC)cc2)cc1)c1ccc(F)c(C(=O)OC)c1 [Compound 7]  human butyrylcholinesterase (hBChE) (Homo sapiens, UniProt P06276)             %               45
2  Cc1ccc(C#Cc2ccc(CN(CCC(C)(C)C)c3ccc(O)c(C(=O)O)c3)cc2)cc1 [Compound 4]  human butyrylcholinesterase (hBChE) (Homo sapiens, UniProt P06276)             %              100
3  CCCCCCN(Cc1ccc(C#Cc2ccc(C(C)(C)C)cc2)cc1)c1ccc(F)c(C(=O)O)c1 [Compound 8]  human butyrylcholinesterase (hBChE) (Homo sapiens, UniProt P06276)             %               71

Supply reported hBChE RA (%) belonging to this compound: CC(C)(C)c1ccc(C#Cc2ccc(CN(CC3CC3)c3ccc(O)c(C(=O)O)c3)cc2)cc1 [Compound 2]
100
